- Measured on: T1, human calcitonin receptor (human, UniProt P30988 25-474)
- T1 sequence (looked up): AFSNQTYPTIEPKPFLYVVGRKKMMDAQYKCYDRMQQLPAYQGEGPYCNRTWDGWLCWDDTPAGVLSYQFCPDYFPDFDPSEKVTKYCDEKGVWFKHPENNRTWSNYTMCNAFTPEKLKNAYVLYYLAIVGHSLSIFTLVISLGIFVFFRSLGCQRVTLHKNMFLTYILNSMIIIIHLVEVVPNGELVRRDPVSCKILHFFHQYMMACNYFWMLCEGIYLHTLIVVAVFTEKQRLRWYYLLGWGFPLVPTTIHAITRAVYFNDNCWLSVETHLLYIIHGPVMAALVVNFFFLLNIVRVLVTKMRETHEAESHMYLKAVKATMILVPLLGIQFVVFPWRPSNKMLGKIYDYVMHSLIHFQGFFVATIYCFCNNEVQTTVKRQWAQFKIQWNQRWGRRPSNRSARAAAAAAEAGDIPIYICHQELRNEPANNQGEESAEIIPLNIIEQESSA
- Procedure details: cell-based or functional assay
Numbered stars: 1 amine (or outer) side, 2 acyl side, 3 side chain; on linkers, the order of the positions; unused ones are H or OH. Bridge positions count the residues as written; N and C are the ends. Side chains are listed from the residue outwards. Ends that are not written are not given here. * marks the point of attachment. C20 diacid = O=C(O)CCCCCCCCCCCCCCCCCCC(=O)*; C18 diacid = O=C(O)CCCCCCCCCCCCCCCCC(=O)*; γGlu = O=C(O)[C@H](CCC(=O)[*:2])N[*:1]
Reported property: hCTR funct. EC50 (pM)

K([γGlu-γGlu-C20 diacid])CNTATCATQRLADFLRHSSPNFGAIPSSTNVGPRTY-NH2 (disulfide 2-7 (inferred), Synthetic; also called compound 130) : 7280

(I) K([γGlu-γGlu-C20 diacid])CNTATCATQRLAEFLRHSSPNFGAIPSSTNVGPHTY-NH2 (disulfide 2-7 (inferred), Synthetic)
(II) K([γGlu-C20 diacid])CNTATCATQRLAEFLRHSSPNFGAIPSSTNVGPETY-NH2 (disulfide 2-7 (inferred), Synthetic)
// task: argmin of hCTR funct. EC50 (pM) over [ I , II ] Please indicate the selected item by its label.
II

(I) K([γGlu-C18 diacid])CNTATCATQRLANFLRHSSPNFGAIPSSTNVGHNTY-NH2 (disulfide 2-7 (inferred), Synthetic) [N^ε1-[(4S)-4-carboxy-4-(17-carboxyheptadecanoylamino)butanoyl]-[Arg17,Pro21,Pro27,His34]-h-amylin]
(II) K([γGlu-C20 diacid])CNTATCATQRLAEFLRHSSPNFGAIPSSTNVGRETY-NH2 (disulfide 2-7 (inferred), Synthetic)
Given I and II , report the one with the higher recorded hCTR funct. EC50 (pM). Please indicate the selected item by its label.
I
(I: 5850 pM, II: 2740 pM)
